molecular target: T1, His-tagged ECD of human 4-1BB (human, UniProt Q07011 24-184); experiment: SPR (Biacore), captured antibody, His-tagged ECD analyte
T1 construct: also called hu4-1BB; 4-1BB ECD; not shown: His tag
Recorded endpoint: pKd
When answering, recall that pKd equals minus log10 of the concentration in mol/L, and write that number alone.

Consider the binder shown here: hu107-1-hIgG4 (antibody, V domains shown, Human IgG4 constant region with the S228P mutation; also called hu107.1x.1x) VH: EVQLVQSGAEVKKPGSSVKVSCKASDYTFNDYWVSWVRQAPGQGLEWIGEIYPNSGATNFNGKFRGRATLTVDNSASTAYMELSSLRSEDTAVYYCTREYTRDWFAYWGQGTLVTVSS VL: DVVLTQSPLSLPVTLGQPASISCRSSQSLLDSDGNTYLYWFQQRPGQSPRRLIYLVSNLGSGVPDRFSGSGSGTDFTLKISRVEAEDVGVYYCMQPTHAPYTFGQGTKLEIK What is its recorded pKd?
9.24
